# EXPERIMENTAL_SYSTEM: Botulinum neurotoxin type A (Clostridium botulinum) (UniProt P0DPI0)
# Sequence (P0DPI0 whole entry, looked up): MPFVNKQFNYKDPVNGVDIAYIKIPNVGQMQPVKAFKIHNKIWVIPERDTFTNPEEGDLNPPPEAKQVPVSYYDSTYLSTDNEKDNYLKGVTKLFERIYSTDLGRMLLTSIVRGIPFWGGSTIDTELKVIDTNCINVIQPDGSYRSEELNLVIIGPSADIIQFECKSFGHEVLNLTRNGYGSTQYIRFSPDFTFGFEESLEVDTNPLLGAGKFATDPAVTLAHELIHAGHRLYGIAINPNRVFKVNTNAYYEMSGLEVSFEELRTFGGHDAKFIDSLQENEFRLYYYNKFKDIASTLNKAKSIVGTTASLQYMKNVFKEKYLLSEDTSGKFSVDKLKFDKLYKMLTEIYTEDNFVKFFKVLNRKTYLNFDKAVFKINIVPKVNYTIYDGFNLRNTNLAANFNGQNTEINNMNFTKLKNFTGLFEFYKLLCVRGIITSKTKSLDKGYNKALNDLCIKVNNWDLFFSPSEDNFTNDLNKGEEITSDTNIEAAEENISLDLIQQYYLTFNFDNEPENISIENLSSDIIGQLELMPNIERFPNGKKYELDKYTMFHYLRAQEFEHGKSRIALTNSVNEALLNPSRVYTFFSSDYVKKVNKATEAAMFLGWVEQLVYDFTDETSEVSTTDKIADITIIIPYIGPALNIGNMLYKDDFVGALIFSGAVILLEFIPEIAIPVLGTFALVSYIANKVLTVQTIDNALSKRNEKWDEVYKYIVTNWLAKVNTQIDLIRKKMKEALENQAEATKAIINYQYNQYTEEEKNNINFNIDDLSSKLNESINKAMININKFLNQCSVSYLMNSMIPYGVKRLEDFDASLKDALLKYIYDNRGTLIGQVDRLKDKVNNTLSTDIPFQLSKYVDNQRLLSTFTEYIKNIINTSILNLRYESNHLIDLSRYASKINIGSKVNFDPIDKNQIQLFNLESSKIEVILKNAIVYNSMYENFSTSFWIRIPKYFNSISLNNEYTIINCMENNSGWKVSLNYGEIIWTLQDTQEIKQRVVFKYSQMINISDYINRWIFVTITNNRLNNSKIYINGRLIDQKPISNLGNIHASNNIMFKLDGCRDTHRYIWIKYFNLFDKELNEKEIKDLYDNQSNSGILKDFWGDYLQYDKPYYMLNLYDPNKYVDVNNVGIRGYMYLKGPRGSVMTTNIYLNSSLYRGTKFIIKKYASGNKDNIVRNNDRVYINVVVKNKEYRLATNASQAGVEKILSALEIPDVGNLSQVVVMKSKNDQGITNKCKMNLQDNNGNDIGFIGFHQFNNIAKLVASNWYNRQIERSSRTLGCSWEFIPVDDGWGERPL
# ASSAY_PROCEDURE: BoNT/A light chain protease inhibitors, biochemical, multiplex microsphere flow cytometry, validation set (AID 588460)
# APPLIED_CONDITIONS: at 10 µM, stronger effect = higher value
ATTRIBUTE_MEASURED: inhibition (%)
Field: numeric (%). Do not append units.

# COMPOUND, UNIT_LABEL, inhibition
data = [
    ("CCOc1ccccc1Oc1coc2cc(OCC(=O)O)ccc2c1=O", "%", 1.4),
    ("CCCN1CCC(NC(=O)Nc2ccc(Br)cc2)CC1", "%", -1.7),
    ("OC[C@H]1O[C@@H](n2cnc3c(Nc4ccccc4)ncnc32)[C@H](O)[C@@H]1O", "%", -0.2),
    ("Fc1cc(F)cc(NC(=S)NCCCN2CCOCC2)c1", "%", -0.7),
    ("C[C@H]1C[C@@H]2[C@H]([C@@H](O)C[C@@]3(C)[C@H]2CC[C@]3(O)C(=O)CO)[C@@]2(C)C=CC(=O)C=C12", "%", 0.7),
    ("O=c1oc2c(CN3CCN(CCO)CC3)c(O)ccc2cc1-c1ccccn1", "%", 0.8),
]

The compound listed as CCOC(=O)Cn1c(C)cc(=O)c2ccccc21 has a reported inhibition of 1.7

Sample Cc1c(OCC(F)(F)F)ccnc1CS(=O)c1nc2ccccc2[nH]1 (stereo not drawn) ; inhibition observed: -0.5

Recorded inhibition (compound CCN(CCCc1ccccc1)CCCc1ccccc1 ): -0.4

Briefly, inhibition measured for O=C(CN1C(=O)c2ccccc2C1=O)Nc1cccc([N+](=O)[O-])c1 : -0.9

response.value for Cc1cc(=O)c2c(O)c(O)ccc2o1 (field: inhibition) = 2.5

inhibition measured on Cc1cccc2c(=O)n3c(nc12)CCCCC3 = -1.4

# inhibition (compound: COCCOC(=O)C1=C(N)OC2=C(C(=O)CCC2)C1c1cccnc1 (stereo not drawn) ) is 0

Documented inhibition of COc1cc(OC)cc(C(=O)N[C@@H](CCSC)c2nc3ccccc3[nH]2)c1 : 0.8

----------
# System: Botulinum neurotoxin type F light chain protease (Clostridium botulinum)
# ASSAY_PROCEDURE: Botulinum neurotoxin type F light chain protease inhibition, multiplex microsphere flow cytometry, validation set (AID 588459)
# APPLIED_CONDITIONS: multiplex microsphere protease substrate cleavage assay, at 10 µM, stronger effect = higher value
ATTRIBUTE_MEASURED: inhibition (%)
Note: unit % is implicit; provide only the numeric part.

Previously resolved entries follow.
# MOLECULE, ATTRIBUTE_MEASURED, QUANTITATIVE_RESULT
measured = [
    ("CC[N+](C)(CC)CCOC(=O)C(O)(c1ccccc1)C1CCCCC1 (stereo unspecified)", "inhibition", 4.8),
    ("Cn1c2ccc(CC(=O)O)cc2c2cc(CC(=O)O)ccc21", "inhibition", 2.2),
    ("COc1ccccc1CCn1cnc2c3cc(C)ccc3n(C)c2c1=O", "inhibition", -0.5),
    ("CC1(C)CC(C(CC(=O)O)c2ccccc2)CCO1 (stereo unspecified)", "inhibition", 0.4),
    ("O=c1cc(-c2ccc3c(c2)OCCO3)oc2ccc(Cl)cc12", "inhibition", 0.8),
]

Please examine the following record next.
Quick note, inhibition for COc1ccc(C(=O)C2CCCCC2=O)cc1 (stereo unspecified) landed at 1.5

----------
# ASSAY_PROCEDURE: modulators of CIT2-GFP expression in yeast, confirmation, S. cerevisiae, GFP fusion, cherry picks, mother/daughter gates (AID 2274)
# APPLIED_CONDITIONS: S. cerevisiae CIT2-GFP strain, flow cytometry, 3 h; measured here: daughter cell gate; at 10 µM; stronger effect = higher value
Overview of reported GFP response, % of DMSO across a group of molecules:
Just the number please, in %, no unit attached.

# MOLECULE, UNIT_LABEL, GFP response, % of DMSO
records = [
    ("CCN(CC)c1ccc(C=C2C(=O)NC(=S)NC2=O)cc1", "%", 95.8),
    ("O=C(O)c1nn(Cc2ccc(Cl)cc2Cl)c2ccccc12", "%", 91.5),
    ("CC[C@@H]1C(=O)OC[C@@H]1Cc1cncn1C", "%", 98.3),
]

GFP response, % of DMSO for CCN(CC)c1ccc(/C=C/[N+](=O)[O-])cc1 is 106

For this molecule ( C[C@H](O)[C@H]1CC[C@H]2[C@@H]3CCC4=CC(=O)CC[C@]4(C)[C@H]3CC[C@]12C ), measured GFP response, % of DMSO is 89.9

Looking up CC1(C)OC(c2ccccc2)=C/C(=C/C=C2C(=O)NC(=S)NC2=O)O1 , I found its GFP response, % of DMSO recorded as 121

Measured GFP response, % of DMSO of COc1cc(/C=C/C(=O)c2c(O)n(CCc3ccccc3)c(=O)[nH]c2=O)ccc1O : 114

GFP response, % of DMSO recorded for this molecule, CCC(C)N1C(=O)/C(=C\c2cnc(N(C)C)nc2)C(=O)NC1=S (stereo not drawn) , is 114

The molecule listed as O=C1NC(=S)NC(=O)C1=Cc1ccc2c(c1)CCN2CCCCl has a reported GFP response, % of DMSO of 90.2

----------
# EXPERIMENTAL_SYSTEM: Botulinum neurotoxin type A (Clostridium botulinum)
# ASSAY_PROCEDURE: BoNT/A light chain protease inhibitors, biochemical, multiplex microsphere flow cytometry, validation set (AID 588460)
# APPLIED_CONDITIONS: at 10 µM, stronger effect = higher value
The reader will find reported inhibition values listed item by item below.
Use % as the unit, but write only the number.

Example entries begin here.
# COMPOUND, QUANTITATIVE_RESULT
measured = [
    ("COc1ccc(C2C(=O)c3ccccc3C2=O)cc1", -0.4),
    ("CC12CCC(C(=O)N3CCCCC3)([C@H](Br)C1=O)C2(C)C (some centres not stated)", -1.3),
    ("Cc1ccc(CSCC(=O)N2CCCC2)cc1", -0.3),
    ("CC(=O)N1N=C(c2cccs2)CC1c1ccc(C)o1 (configuration not stated)", -0.8),
]

Briefly, inhibition measured for COc1ccc2c(c1OC)C(=O)NC(C)=C(C(=O)OC(C)(C)C)C2O (configuration not stated) : -0.4

GET /value?item= COC(=O)C1=CN(Cc2cccs2)C=C(C(=O)OC)C1c1cccc(Cl)c1 &field=inhibition returns -0.4

Short answer for CCOc1ccc2nc(NC(=O)NC3CCCCC3)sc2c1 : inhibition was -1.5

Lookup result for CN1CCCN=C1COC(=O)C(O)(c1ccccc1)C1CCCCC1 (configuration not stated) ; measured inhibition: -0.9

inhibition for O=c1[nH]cc(F)c(=O)[nH]1 is -1.2

O=c1cnn([C@@H]2O[C@H](CO)[C@@H](O)[C@H]2O)c(=O)[nH]1 has a reported inhibition of 1.8

Measured inhibition of COc1ccc(/C=N\NC(=O)CCc2c(C)n[nH]c2C)c(OC)c1OC : 0.3

----------
Measured inhibition values are reported for all entries that follow.
# EXPERIMENTAL_SYSTEM: Botulinum neurotoxin type A (Clostridium botulinum)
# ASSAY_PROCEDURE: BoNT/A light chain protease inhibitors, biochemical, multiplex microsphere flow cytometry, validation set (AID 588460)
# APPLIED_CONDITIONS: at 10 µM, stronger effect = higher value
Respond with the bare value in %.

# MOLECULE, QUANTITATIVE_RESULT
measured = [
    ("Cc1coc2cc3oc(=O)c(CCC(=O)O)c(C)c3cc12", -2),
    ("CCOC(=O)C1=C(C)N[C@@]2(O)c3ccccc3C(=O)[C@@]12O", 0.5),
    ("CCN(CC)c1ccc(C2=NNC(=O)CC2C)cc1[N+](=O)[O-] (stereo not drawn)", -0.3),
    ("COc1ccc(C2OC[C@H]3O[C@H](O)[C@H](NC(C)=O)[C@@H](O)[C@@H]3O2)cc1 (stereo partly drawn)", -1.7),
    ("Cc1ccc(S(=O)(=O)n2ccnc2)cc1C", -0.3),
]

Record COc1cc2c(cc1OC)C(=S)NC(C)(C)C2 , field inhibition: -0.8

Item: NC(N)=NC(N)=NCCc1ccccc1 | inhibition: -0.8

# inhibition of CCCCNc1cc(C(=O)O)cc(S(N)(=O)=O)c1Oc1ccccc1 = 1.7

----------
Consider the following molecules and their measured inhibition readings.
# EXPERIMENTAL_SYSTEM: Botulinum neurotoxin type A (Clostridium botulinum) (UniProt P0DPI0)
# ASSAY_PROCEDURE: BoNT/A light chain protease inhibitors, biochemical, multiplex microsphere flow cytometry, validation set (AID 588460)
# APPLIED_CONDITIONS: at 10 µM, stronger effect = higher value
Report the figure in % without appending any unit label.

Study these solved cases before continuing.
# MOLECULE, EXPERIMENTAL_SYSTEM, inhibition (%)
rows = [
    ("Nc1cccc(C(=O)O)c1", "Botulinum neurotoxin type A (Clostridium botulinum) (UniProt P0DPI0)", -0.3),
    ("OC(COCc1ccccc1)CN1CCN(Cc2ccc3c(c2)OCO3)CC1 (stereo unspecified)", "Botulinum neurotoxin type A (Clostridium botulinum) (UniProt P0DPI0)", 0.3),
    ("COCCCN1C(=O)/C(=C\\c2cccs2)C(C(=O)OC)=C1C", "Botulinum neurotoxin type A (Clostridium botulinum) (UniProt P0DPI0)", -0.8),
    ("CCOC(=O)c1ncn2c1CN(C)C(=O)c1cc(F)ccc1-2", "Botulinum neurotoxin type A (Clostridium botulinum) (UniProt P0DPI0)", -1.4),
    ("c1ccc2c3c(c(CN4CCCCC4)cc2c1)COC3", "Botulinum neurotoxin type A (Clostridium botulinum) (UniProt P0DPI0)", -1),
]

Record for O=c1cc(-c2ccc3c(c2)OCCO3)oc2ccc(Cl)cc12 under target or system Botulinum neurotoxin type A (Clostridium botulinum) (UniProt P0DPI0): inhibition reported as -0.6

All figures here come from PubChem BioAssay.
